# Test system: HCT-15 colon
# assay-info: NCI-60 one-dose screen, 48 h (100 = growth as untreated, 0 = no growth, -100 = all killed)
# conditions-used: 10 µM unless noted
About 83,000 compounds went through this panel and 20% of them were active in at least one assay; those are over-represented in the sample as a whole.
Outcome label depends on growth relative to 40%: at/above gives Criterion met, below gives Criterion not met.

Query: Hi, just wondering whether `Cc1occc1-c1nc2s/c(=C/c3ccc(-c4cc(C(F)(F)F)ccc4Cl)o3)c(=O)n2n1` shows growth of 40% or higher.
Reply: Criterion met

Query: Would you say `c1n[nH]cc1-c1nc2ccc3[nH]ncc3c2c2c1CCCC2` shows growth at minimum 40%?
Reply: Criterion not met

Query: Please indicate if the recorded growth for `O=c1[nH]c(Sc2sc3ccc(Cl)cc3c2CBr)nc(=S)[nH]1` meets or exceeds 40%.
Reply: Criterion not met

Query: Could you verify whether the entry `CC1(C)CC[C@]2(C(=O)N3CCOCC3)CC[C@]3(C)C(=CC[C@@H]4[C@@]5(C)C/C(=C/c6ccccn6)C(=O)C(C)(C)[C@@H]5CC[C@]43C)[C@@H]2C1` shows growth of no less than 40%?
Reply: Criterion met

Query: # bool: growth of `C#CCC#CCN1CCC[C@H]1C(=O)NCC(=O)OC` >= 40%
Reply: Criterion met

Query: Does growth meet or surpass 40% for `CN1CCN(c2nc(-c3csc(-c4ccccc4)n3)cc3ccccc23)CC1` ?
Reply: Criterion not met

Query: # bool: growth of `ClC(Cl)c1nc(-c2ccco2)n2nc(-c3ccccc3)cc2n1` >= 40%
Reply: Criterion not met

Query: Given `O=C1/C(=C/C=C/c2ccco2)SC(=S)N1C1CCCCC1` , state whether its growth is at least 40%.
Reply: Criterion met

Query: Record CCCn1cnc2c(c1=N)C(c1ccc(OC)cc1)c1sc3c(CC)cccc3c1O2 (stereo not given) ; criterion: growth no lower than 40%. Met?
Reply: Criterion not met

Query: Does the compound `COc1ccc(/C=C/C(=O)c2cc(S(N)(=O)=O)c(OC)cc2OC)cc1` have recorded growth that is 40% or more?
Reply: Criterion met

----------
# Test system: NCI-H522 lung
# assay-info: NCI-60 one-dose screen, 48 h
# conditions-used: 10 µM unless noted
The panel holds about 83,000 compounds, 20% with a hit somewhere; the sample as a whole holds those more often. Calls of active or inactive are those of the source. The calls were made as follows: active = growth percent below 10; inactive = the rest.
Assign a class; possible classes are y (active), n (inactive)

Query: What did the test return for CC1=CC(=O)C2=C(C)CC(OC(=O)CCc3ccccc3)[C@@H]3[C@H](OC(=O)[C@@H]3C)[C@@H]12 (stereo partly drawn) ?
Reply: n

Query: Record request — test call for `COc1cc(-c2nnc(SCc3ccc(O)c4ncccc34)n2-c2ccccc2)cc(OC)c1OC`
Reply: y

Query: Outcome logged for `CC(C)(C)c1ccc(CC(=O)Nc2sc3c(c2C(N)=O)CCC(=O)C3)cc1` in this assay:
Reply: y

Query: Dear all, I need the recorded test outcome for `O=S(=O)(NCCCNc1nccc(-c2[nH]c(-c3ccccc3)nc2-c2ccc(Cl)c(O)c2)n1)c1ccc(Br)cc1` , thank you.
Reply: n

Query: Called result for `O=C1CCCc2nc(Nc3ccc(S(=O)(=O)Nc4ccc([N+](=O)[O-])cc4)cc3)ncc21`
Reply: n

Query: GET /call?item= `COc1ccccc1NC1=C(Cl)C(=O)c2nc(C)ccc2C1=O` returns the recorded outcome of this test.
Reply: y

Query: What call does the record list for `O=c1[nH]c(Sc2sc3ccc(Cl)cc3c2CBr)nc(=S)[nH]1` ?
Reply: n

Query: What did the test return for `CC[C@]12C=CCN3CC[C@@]4(c5cc(NC(=O)COc6cc(O)c7c(=O)cc(-c8ccccc8)oc7c6)c(OC)cc5N(C)[C@H]4[C@@](O)(C(=O)OC)[C@@H]1OC(C)=O)[C@@H]32` ?
Reply: y
